- measurement_target: NLRP3 inflammasome (Mus musculus)
- Construct: endogenous in cells; host or cells: primary mouse bone marrow-derived dendritic cells (BMDCs), LPS-primed
- Sequence (Q8R4B8 whole entry): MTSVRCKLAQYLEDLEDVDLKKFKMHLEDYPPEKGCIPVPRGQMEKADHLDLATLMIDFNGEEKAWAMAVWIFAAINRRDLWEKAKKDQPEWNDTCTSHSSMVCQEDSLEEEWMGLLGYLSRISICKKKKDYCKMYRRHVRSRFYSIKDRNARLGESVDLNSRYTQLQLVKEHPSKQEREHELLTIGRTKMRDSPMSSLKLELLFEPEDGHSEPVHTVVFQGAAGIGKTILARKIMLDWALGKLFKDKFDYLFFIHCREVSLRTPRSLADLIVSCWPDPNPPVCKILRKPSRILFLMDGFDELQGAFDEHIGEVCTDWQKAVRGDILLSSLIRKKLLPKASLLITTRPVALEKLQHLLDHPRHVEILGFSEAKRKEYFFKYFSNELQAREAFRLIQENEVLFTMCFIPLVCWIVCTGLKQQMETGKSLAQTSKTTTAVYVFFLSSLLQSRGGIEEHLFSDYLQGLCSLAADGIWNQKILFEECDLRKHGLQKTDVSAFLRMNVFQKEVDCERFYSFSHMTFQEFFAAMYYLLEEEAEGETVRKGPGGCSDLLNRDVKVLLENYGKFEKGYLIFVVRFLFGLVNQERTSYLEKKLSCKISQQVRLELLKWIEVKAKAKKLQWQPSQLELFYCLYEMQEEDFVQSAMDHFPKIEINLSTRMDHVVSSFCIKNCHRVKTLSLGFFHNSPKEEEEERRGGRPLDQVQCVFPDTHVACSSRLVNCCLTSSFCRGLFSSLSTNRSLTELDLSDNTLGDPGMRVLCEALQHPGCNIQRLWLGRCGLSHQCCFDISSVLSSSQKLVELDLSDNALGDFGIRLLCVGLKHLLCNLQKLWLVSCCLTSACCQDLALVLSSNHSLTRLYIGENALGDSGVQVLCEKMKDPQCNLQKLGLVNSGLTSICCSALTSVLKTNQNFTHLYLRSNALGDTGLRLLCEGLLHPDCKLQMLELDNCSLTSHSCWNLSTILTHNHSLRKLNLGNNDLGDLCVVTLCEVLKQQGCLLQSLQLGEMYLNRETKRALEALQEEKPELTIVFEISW
- assay_explanation: IL-1β release from LPS-primed BMDCs (ELISA) as readout of NLRP3 inflammasome activation
- Type: cell-based
- condition_summary: compound 50 μM; LPS-primed BMDCs
Outcome label depends on Average IL-1β relative to 0.1 ng/mL: at/above gives 1 (yes), below gives 0 (no).

INSERT INTO assay_data (compound, class_assignment) VALUES
  ('CCc1ccc(Cl)c(CC)c1NC(=O)NC(c1nc(-c2cccnc2)no1)C(C)C (stereo not drawn)', '1 (yes)'),
  ('Cc1ccc(N2C(=O)C(=O)N(Cc3nc(-c4ccsc4)no3)C2=O)cc1', '1 (yes)'),
  ('CC(C)CC(NC(=O)Nc1cccc(N2CCC(C)CC2)c1)c1nc(-c2nnc[nH]2)no1 (stereo not drawn)', '0 (no)'),
  ('O=C(Nc1ccccc1)Nc1ccc2ncccc2c1', '1 (yes)'),
  ('O=C(Nc1ccccc1)Nc1cccc(N2CCOC2=O)c1', '1 (yes)'),
  ('O=C(Nc1cccc(Cl)c1)N1CCOCC1c1nc(-c2cccs2)no1 (stereo not drawn)', '0 (no)'),
  ('Cc1ccc(N2C(=O)N(Cc3nc(-c4ccc(F)cc4)no3)C(=O)C2C)cc1 (stereo not drawn)', '1 (yes)'),
  ('CC(=O)Nc1ccc(NC(=O)Nc2ccccc2)cc1', '0 (no)');

====

- Test system: BMDCs
- assay_explanation: LDH release (lytic cell death, pyroptosis) from LPS-primed BMDCs
- Assay type: cell-based, mouse
- condition_summary: Mus musculus, BMDC, 40 μM; individual replicate values; read-out: LDH release (% of max.)
The reader will find reported cytotoxicity at 40 µM values listed item by item below.
measured_endpoint: cytotoxicity at 40 µM (%)

INSERT INTO results (entry_smiles, measurement_target, assay_result) VALUES
  ('O=C(Nc1ccccc1)Nc1ccc2ncc(Br)cc2c1', 'BMDCs', 25.6),
  ('O=C(Nc1ccccc1)Nc1ccc2ncccc2n1', 'BMDCs', 9.38),
  ('COc1ccc(NC(=O)Nc2ccc3ncccc3c2)cc1', 'BMDCs', 31.4),
  ('N#Cc1ccc(NC(=O)Nc2ccc3ncccc3c2)cc1', 'BMDCs', 12.6);

====

Quick reference for Average (% positive control) among some molecules
- Tested on: BMDCs
- assay_explanation: LDH release (lytic cell death, pyroptosis) from LPS-primed BMDCs
- Format: cell-based, mouse
- condition_summary: section 1.4; LDH release; 75 μM; positive control EN22 18.75 μM
measured_endpoint: Average (% positive control)

INSERT INTO measurements (molecule, assay_result) VALUES
  ('Cc1c(F)cccc1CN1CCCC(Cc2nc(-c3ccc(NC(=O)Nc4ccccc4)cc3)no2)C1 (stereo not shown) [PM16]', 136.598),
  ('COc1ccc(NC(=O)Nc2ccc(-c3noc(CC4CCCN(Cc5cccc(F)c5C)C4)n3)cc2)cc1 (stereo not shown) [PM07]', 120.051),
  ('O=C(Nc1ccccc1Cl)Nc1ccc([N+](=O)[O-])cc1Cl [A.C2]', 106.244),
  ('O=C(Nc1cccc(Cl)c1)Nc1ccc([N+](=O)[O-])cc1Cl [TCMDC-143175]', 128.113);

Origin of measurements: patent US20240277658A1
